Target: IRAK4 enzyme (Homo sapiens (Human), UniProt Q9NWZ3)
Sequence (Q9NWZ3 whole entry): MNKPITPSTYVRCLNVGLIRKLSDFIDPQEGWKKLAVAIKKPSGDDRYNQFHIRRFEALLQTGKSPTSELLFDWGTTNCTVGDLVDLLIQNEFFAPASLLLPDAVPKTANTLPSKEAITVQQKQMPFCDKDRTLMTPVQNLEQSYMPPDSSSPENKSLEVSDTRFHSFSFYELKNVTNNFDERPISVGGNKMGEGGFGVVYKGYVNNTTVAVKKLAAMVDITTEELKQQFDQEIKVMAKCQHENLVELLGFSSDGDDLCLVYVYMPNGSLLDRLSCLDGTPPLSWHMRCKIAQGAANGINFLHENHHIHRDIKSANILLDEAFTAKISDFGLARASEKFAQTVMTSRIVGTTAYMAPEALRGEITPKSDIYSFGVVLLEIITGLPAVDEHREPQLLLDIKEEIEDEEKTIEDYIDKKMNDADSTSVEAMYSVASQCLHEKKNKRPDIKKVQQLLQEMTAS
Experiment: biochemical
Assay type: biochemical
Conditions: IRAK4 enzyme, TR-FRET, 500 μM ATP
pIC50: −log10 of the molar value.
Field: pIC50. Provide a value for each of the compounds that follow.

Below, each entry is followed by its recorded pIC50 result.
1) CC(C)(O)[C@H](F)CNC(=O)c1cnc(-c2ccc3cc(C#N)cnn23)cc1Nc1cccc(C#N)c1; > 9.00
2) CC(C)Nc1cc(-c2ccc3cc(C#N)cnn23)ncc1C(=O)NCC(=O)OC(C)(C)C; > 9.00

Lab note: next compound to report on.
Find pIC50 (IRAK4 enzyme (Homo sapiens (Human), UniProt Q9NWZ3)) for the entry `CC(C)(O)[C@H](F)CNC(=O)c1cnc(-c2ccc3cc(C#N)cnn23)cc1Nc1cnn([C@H]2CCNC2)c1`
> 9.00

The reported measurements were obtained from patent US10336762B2.
